meta.source: patent US20120115774A1

Please respond with reported MIC, S. epidermidis ATCC14990 for every item in the list.
# System: S. epidermidis ATCC 14990
# Format: cell-based, Staphylococcus epidermidis
# statedConditions: ATCC 14990
State the answer as a number, implicitly in µg/mL.

query: Quick one: MIC, S. epidermidis ATCC14990 of `CCCCCCCCCCCC(=O)N[C@@H](CCCCN)CC(=O)N[C@H](CC(=O)N[C@H](CC(=O)N[C@@H](CCCCN)CC(N)=O)CC(C)C)CC(C)C` ?
result: 16

query: Quick one: MIC, S. epidermidis ATCC14990 of `CCCCCCCCCCCCCCCC(=O)N[C@@H](CCCCN)CC(=O)NCCC(=O)NCCC(=O)N[C@@H](CCCCN)CC(N)=O` ?
result: 8

query: Quick one: MIC, S. epidermidis ATCC14990 of `CCCCCCCCCCCCCCCC(=O)N[C@@H](CCCCN)CC(=O)N[C@@H](CCCCN)CC(=O)N[C@@H](CCCCN)CC(=O)N[C@@H](CCCCN)CC(N)=O` ?
result: 4

query: Quick one: MIC, S. epidermidis ATCC14990 of `CCCCCCCCCCCCCCCC(=O)N[C@@H](CCCCN)CC(=O)N[C@@H](C)CC(=O)N[C@@H](C)CC(=O)N[C@@H](CCCCN)CC(N)=O` ?
result: 8
